- tested system: D2 dopamine receptors (Rattus norvegicus)
- Construct: Striatal samples from the brains of male Charles River CD rats; from tissue; host or cells: striatum of male Charles River CD rats (washed membrane pellet)
- Sequence (P61169 whole entry): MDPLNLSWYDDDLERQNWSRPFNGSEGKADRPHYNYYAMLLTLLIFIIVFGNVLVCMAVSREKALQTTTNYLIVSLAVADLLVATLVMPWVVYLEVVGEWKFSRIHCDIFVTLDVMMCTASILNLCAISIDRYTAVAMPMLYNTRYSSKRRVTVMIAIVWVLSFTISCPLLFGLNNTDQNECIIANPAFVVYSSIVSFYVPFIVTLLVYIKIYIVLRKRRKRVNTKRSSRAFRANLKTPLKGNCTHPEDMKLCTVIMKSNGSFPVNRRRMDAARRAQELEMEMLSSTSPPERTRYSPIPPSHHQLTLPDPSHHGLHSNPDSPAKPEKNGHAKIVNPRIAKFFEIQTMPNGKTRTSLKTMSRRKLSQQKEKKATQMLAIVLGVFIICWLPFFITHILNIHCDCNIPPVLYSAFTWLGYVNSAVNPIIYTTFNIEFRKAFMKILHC
- measurement protocol: D2 dopamine receptor binding: inhibition of tritiated (S)-sulpiride binding, rat striatal samples
- Design: species or system rat (male Charles River CD rats)
- condition context: ratio to two significant figures
outcome measure: Ki for D2 / Ki for D1

Worked examples follow.
# compound, Ki for D2 / Ki for D1
rows = [
    ("COc1cc2c(cc1O)C(C1(c3ccccc3)CCCCC1)N(C)CC2 (stereo not shown) [Example 36]", 71),
    ("COc1ccc(C2(C3c4cc(O)c(O)cc4CCN3C)CCC2)cc1 (stereo not shown) [Example 54]", 94),
    ("CN1CCc2cc(Cl)c(O)cc2C1C1(c2ccccc2Br)CCC1 (stereo not shown) [Example 40]", 45000),
    ("CN1CCc2cc(O)c(O)cc2C1C1(c2cccc(Cl)c2)CCC1 (stereo not shown) [Example 33]", 350),
    ("CN1CCc2cc(O)c(O)cc2C1C1(c2ccc3ccccc3c2)CCC1 (stereo not shown) [Example 42]", 15),
    ("COc1cc2c(cc1O)C(C1(c3ccccc3OC)CC1)N(C)CC2 (stereo not shown) [Example 73]", 5500),
]

[I] CN1CCc2cc(O)c(O)cc2C1C1(c2ccccc2Cl)CCC1 (stereo not shown) [Example 2]
[II] COc1cc2c(cc1O)C(C1(c3ccccc3Cl)CCCC1)N(C)CC2 (stereo not shown) [Example 84]
Compare I and II and name the one whose reported Ki for D2 / Ki for D1 is smaller. Write down the label of the entry you select.
II

====

- tested system: D1 dopamine receptors (Rattus norvegicus, UniProt P18901)
- Construct: Striatal samples from the brains of male Charles River CD rats
- Sequence (P18901 whole entry): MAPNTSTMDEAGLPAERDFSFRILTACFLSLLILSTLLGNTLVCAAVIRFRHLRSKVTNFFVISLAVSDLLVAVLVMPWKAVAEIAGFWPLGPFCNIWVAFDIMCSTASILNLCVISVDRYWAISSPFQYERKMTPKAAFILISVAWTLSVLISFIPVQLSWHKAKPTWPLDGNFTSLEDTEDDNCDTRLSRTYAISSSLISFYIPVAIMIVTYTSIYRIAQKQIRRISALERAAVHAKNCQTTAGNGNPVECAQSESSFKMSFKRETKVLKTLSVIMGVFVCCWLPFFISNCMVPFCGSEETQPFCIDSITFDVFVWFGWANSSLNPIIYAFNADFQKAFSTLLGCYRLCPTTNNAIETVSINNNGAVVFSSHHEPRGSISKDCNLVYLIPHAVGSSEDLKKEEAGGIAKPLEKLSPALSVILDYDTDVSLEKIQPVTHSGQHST
- measurement protocol: D1 dopamine receptor binding: inhibition of tritiated SCH 23390 binding, rat striatal samples
- condition context: rat striatum, tritiated SCH 23390, pH 7.4, 37° C., 30 minutes
- Protocol: Striatal samples from the brains of male Charles River CD rats weighing between 140-250 g were homogenised in ice-cold 50 mM Tris-HCl buffer (pH 7.4 when measured at 25° C. for D1 binding assays and pH 7.7 when measured at 25° C. for D2 binding assays) and centrifuged for 10 minutes (at 21,000 g when used for D1binding assay and 40,000 g when used for D2binding assays). The pellet was resuspended in the same buffer, again centrifuged and the final pellet stored at -80° C. […]
outcome measure: Ki (nM)

[A] COc1cc2c(cc1O)C(C1(c3ccccc3Cl)CC1)N(C)CC2 (single isomer, unassigned; (+)) [Example 77]
[B] Cc1cc2c(cc1O)C(C1(c3ccccc3Cl)CC1)N(C)CC2 (stereo not shown) [Example 79]
[C] CN1CCc2cc(F)c(O)cc2C1C1(c2ccccc2Br)CCC1 (stereo not shown)
[D] CN1CCc2cc(O)c(Cl)cc2C1C1(c2ccccc2)CCC1 (stereo not shown)
With the 4 molecules above, produce a list ordered by ascending Ki. Answer by listing the labels in the order asked for.
A, B, C, D

====

- tested system: D1 dopamine receptors (Rattus norvegicus, UniProt P18901)
- Construct: Striatal samples from the brains of male Charles River CD rats
- measurement protocol: D1 dopamine receptor binding: inhibition of tritiated SCH 23390 binding, rat striatal samples
- condition context: rat striatum, tritiated SCH 23390, pH 7.4, 37° C., 30 minutes
pKi: −log10 of the molar value.
outcome measure: pKi

Known pKi results, listed for orientation:
# compound, tested system, pKi
records = [
    ("CN1CCc2cc(O)c(O)cc2C1C1(c2ccccc2)CC1 (stereo not drawn)", "D1 dopamine receptors (Rattus norvegicus, UniProt P18901)", 6.72),
    ("COc1cc2c(cc1O)C(C1(c3ccccc3Cl)CC1)N(C)CC2 (single isomer, unassigned; (+)) [Example 85]", "D1 dopamine receptors (Rattus norvegicus, UniProt P18901)", 9.55),
    ("CN1CCc2cc(O)c(O)cc2C1C1(c2ccc(F)cc2)CCC1 (stereo not drawn)", "D1 dopamine receptors (Rattus norvegicus, UniProt P18901)", 7.66),
]

[1] CN1CCc2cc(O)c(O)cc2C1C1(c2ccc(Cl)cc2Cl)CCC1 (stereo not drawn)
[2] C=CCN1CCc2cc(O)c(O)cc2C1C1(c2ccc(Cl)cc2)CCC1 (stereo not drawn)
[3] CN1CCc2c(cc(O)c(O)c2Cl)C1C1(c2ccccc2)CCC1 (stereo not drawn)
[4] CSc1ccccc1C1(C2c3cc(O)c(O)cc3CCN2C)CCC1 (stereo not drawn)
[5] CN1CCc2ccc(O)cc2C1C1(c2ccc(Cl)cc2)CCC1 (stereo not drawn)
Form: Sort by [pKi] Order [ ascending ] Please express your ranking as an ordered list of the labels.
3, 2, 5, 1, 4
(3: 6.85, 2: 7.28, 5: 7.89, 1: 8.18, 4: 8.82)

====

- tested system: D2 dopamine receptors (Rattus norvegicus)
- Construct: Striatal samples from the brains of male Charles River CD rats; from tissue; host or cells: striatum of male Charles River CD rats (washed membrane pellet)
- measurement protocol: D2 dopamine receptor binding: inhibition of tritiated (S)-sulpiride binding, rat striatal samples
- Design: species or system rat (male Charles River CD rats)
- condition context: rat striatum, tritiated (S)-sulpiride, pH 7.7, 4° C., 40 minutes; > = from highest concentration which displaced ≤50% of the ligand; read-out: Ki for D2 binding
pKi: −log10 of the molar value.
outcome measure: pKi

Look over these answered cases.
# compound, pKi
data = [
    ("CN1CCc2cc(O)c(O)cc2C1C1(c2ccc(Cl)cc2)CC1 (stereo not shown) [Example 13]", 5.43),
    ("CN1CCc2cc(Cl)c(O)cc2C1C1(c2ccc(Cl)cc2)CCC1 (stereo not shown) [Example 53]", 5.12),
]

[I] COc1cc2c(cc1O)C(C1(c3ccc(Cl)cc3Cl)CCC1)N(C)CC2 (stereo not shown) [Example 37]
[II] COc1cc2c(cc1O)C(C1(c3ccccc3Cl)CC1)N(C)CC2 (stereo not shown) [Example 74]
Of I versus II , which is the one with smaller reported pKi? Output the label that corresponds to your choice.
I
(I: 5.28, II: 5.96)

[I] CN1CCc2cc(O)c(O)cc2C1C1(c2ccc(Cl)cc2)CCCC1 (stereo not shown) [Example 14]
[II] CN1CCc2cc(O)c(O)cc2C1C1(c2ccc(Br)cc2)CCC1 (stereo not shown) [Example 17]
[III] CN1CCc2cc(O)c(O)cc2C1C1(c2ccc(F)cc2)CCC1 (stereo not shown) [Example 3]
Sort low-to-high on pKi, please. // rank by listing labels in the order requested
III, II, I
(III: 2.21, II: 5.05, I: 5.32)

====

- tested system: D2 dopamine receptors (Rattus norvegicus)
- Construct: Striatal samples from the brains of male Charles River CD rats; from tissue; host or cells: striatum of male Charles River CD rats (washed membrane pellet)
- measurement protocol: D2 dopamine receptor binding: inhibition of tritiated (S)-sulpiride binding, rat striatal samples
- Design: species or system rat (male Charles River CD rats)
- condition context: ratio to two significant figures
outcome measure: Ki for D2 / Ki for D1

# compound, recorded result
measured = [
    ("CN1CCc2cc([N+](=O)[O-])c(O)cc2C1C1(c2ccccc2)CCC1 (stereo not drawn)", "> 6.5"),
    ("CN1CCc2cc(Cl)c(O)cc2C1C1(c2ccccc2)CC(C)(C)C1 (stereo not drawn)", "> 76"),
]

Checklist item: Ki for D2 / Ki for D1 tested on D2 dopamine receptors (Rattus norvegicus), entry CN1CCc2cc(O)c(O)cc2C1C1(c2ccccc2)CC(C)(C)C1 (stereo not drawn) , value?
> 25

Form field - read-out: Ki for D2 / Ki for D1; system: D2 dopamine receptors (Rattus norvegicus); submitted item: COc1cc2c(cc1O)C(C1(c3cccc4c3OCC4)CC1)N(C)CC2 (stereo not drawn)
2700

Could you share what Ki for D2 / Ki for D1 was measured for COCCN1CCc2cc(OC)c(O)cc2C1C1(c2ccccc2Cl)CC1 (stereo not drawn) , tested on D2 dopamine receptors (Rattus norvegicus)?
> 33

Give the reported Ki for D2 / Ki for D1 for CN1CCc2cc(Br)c(O)cc2C1C1(c2ccccc2)CCC1 (stereo not drawn) (system: D2 dopamine receptors (Rattus norvegicus)).
> 160

====

- tested system: D1 dopamine receptors (Rattus norvegicus)
- Construct: Striatal samples from the brains of male Charles River CD rats
- measurement protocol: D1 dopamine receptor binding: inhibition of tritiated SCH 23390 binding, rat striatal samples
- condition context: rat striatum, tritiated SCH 23390, pH 7.4, 37° C., 30 minutes
outcome measure: Ki (µM)

Example entries begin here.
# compound, Ki [µM]
records = [
    ("CN1CCc2cc(O)c(O)cc2C1C1(c2ccc(Cl)cc2)CCC1 (stereo not shown)", 0.025),
    ("COc1cc2c(cc1O)C(C1(c3cccc4ccccc34)CC1)N(C)CC2 (stereo not shown)", 0.0014),
    ("CN1CCc2cc(O)c(O)cc2C1C1(c2ccccc2)CCC1 (stereo not shown)", 0.024),
    ("CN1CCc2ccc(O)cc2C1C1(c2ccccc2)CCC1 (stereo not shown)", 0.079),
    ("CN1CCc2cc(O)c(O)cc2C1C1(c2ccc3ccccc3c2)CCC1 (stereo not shown)", 0.17),
    ("CN1CCc2cc(Cl)c(O)cc2C1C1(c2ccccc2Cl)CCC1 (stereo not shown)", 0.0023),
]

[a] CN1CCc2cc(O)c(O)cc2C1C1(c2ccccc2F)CCC1 (stereo not shown)
[b] CN1CCc2cc(Cl)c(O)c(Cl)c2C1C1(c2ccccc2)CCC1 (stereo not shown)
[c] CN1CCc2cc(Br)c(O)cc2C1C1(c2ccccc2)CCC1 (stereo not shown)
[d] CN1CCc2cc(Cl)c(O)cc2C1C1(c2ccccc2)CCC1 (single isomer, unassigned; (-)) [Example 59]
List these items ordered by Ki, big to small. Give your ranking as a list of the labels in the requested order.
b, c, a, d
(b: 0.74 µM, c: 0.031 µM, a: 0.021 µM, d: 0.0052 µM)

[a] COc1cc2c(cc1O)C(C1(c3ccccc3Br)CCC1)N(C)CC2 (stereo not shown)
[b] CN1CCc2cc(O)c(O)cc2C1C1(c2ccccc2C#N)CCC1 (stereo not shown)
Hello, I am sorting some records. Could you say if a or b has the smaller Ki value? Selection: enter the item's label.
a
